Origin of the recorded values: patent US9802899B2

Assay: Determination of the log P values by HPLC (formic acid method)
Assay type: physicochemical
Settings: reversed-phase column (C 18), acidic range (pH 3.4), 55° C.
READOUT_KIND: log P

Solved entries:
get_value(item= O=C(Nc1cnn(-c2ncc(F)cc2F)n1)c1sccc1C(F)(F)F [Compound I-2-85] , readout=log P) returns 2.50

get_value(item= O=C(Nc1cnn(-c2ccccc2Br)n1)c1cccnc1C(F)(F)F [Compound I-2-8] , readout=log P) returns 2.58

get_value(item= O=C(Nc1ccn(-c2ccccc2Cl)n1)c1occc1I [Compound I-1-378] , readout=log P) returns 2.96

get_value(item= O=C(Nc1ccn(-c2c(F)cccc2F)n1)c1ccccc1O [Compound I-1-87] , readout=log P) returns 2.66

get_value(item= CC(C)c1nn(C)c(C(=O)Nc2ccn(-c3c(F)cccc3F)n2)c1[N+](=O)[O-] [Compound I-1-290] , readout=log P) returns 2.93

get_value(item= O=C(Nc1ccn(-c2ncccc2C(F)(F)F)n1)c1cccnc1C(F)(F)F [Compound I-1-426] , readout=log P) returns 2.69

[1] O=C(Nc1cnn(-c2ncccc2Cl)n1)c1ccccc1Cl [Compound I-2-12]
[2] CC(C)Cc1nn(C)c(C(=O)Nc2ccn(-c3c(F)cccc3F)n2)c1[N+](=O)[O-] [Compound I-1-289]
Which item exceeds the other in log P, 1 or 2 ? Lab note: record the label of whichever item you select.
2
(2: 3.19, 1: 2.22)
